Reported b* (Lab values after 24 hours) by item:
Measurement Notes: Tanning experiment (liquid skin model)
Assay Setup: 1 mmol substance + 1 mmol DL-lysine in ethylene glycol/water, pH=7, after 24 h, UV-VIS spectrometer
Measurement Name: b* (Lab values after 24 hours)

[
  {
    "Molecule": "CCCCC(CC)COCC(=O)CO (stereo not shown)",
    "Measurement Name": "b* (Lab values after 24 hours)",
    "Val": 24.3
  },
  {
    "Molecule": "O=C(CO)COCc1ccccc1 [MBDE, 1-benzyloxy-3-hydroxypropan-2-one]",
    "Measurement Name": "b* (Lab values after 24 hours)",
    "Val": 70.0
  },
  {
    "Molecule": "O=C(CO)COCC1CCCCC1",
    "Measurement Name": "b* (Lab values after 24 hours)",
    "Val": 50.5
  },
  {
    "Molecule": "CCCCCCCOCC(=O)CO [MHDE, 1-heptyloxy-3-hydroxypropan-2-one]",
    "Measurement Name": "b* (Lab values after 24 hours)",
    "Val": 0.2
  }
]

// data source = patent US20130272978A1
